# Experimental System: KRas G12D mutant (Homo sapiens, UniProt P01116, G12D)
# Construct: fused on or other part: His tag, used for capture on nickel-coated plates
# Assay Overview: Ras GTP binding domain inhibition assay (Cy3-GTP/Cy5-GTP competition)
# Assay Context: 20 μM; with SOS; read-out: KRas G-12D mutant + SOS: % inh.
Readout Name: inhibition at 20 µM

# annotated cases, reported inhibition at 20 µM shown
{"columns": ["Compound", "Experimental System", "Readout Name", "Observed Measurement"],
 "data": [
  ["COc1cccc(Cn2ccnc2-c2nc(O)c3scc(-c4ccccn4)c3n2)c1 [drawing 850]", "KRas G12D mutant (Homo sapiens, UniProt P01116, G12D)", "inhibition at 20 µM", "51 to 75%"],
  ["COc1c(O)nc(-c2ccccn2)nc1Oc1cnn(C)c1 [drawing 803]", "KRas G12D mutant (Homo sapiens, UniProt P01116, G12D)", "inhibition at 20 µM", "51 to 75%"],
  ["COc1ncccc1-c1sc2nc(-c3nccn3C)nc(N3CCC(OC)C3)c2c1-c1ccccc1.Cl (centres unmarked)", "KRas G12D mutant (Homo sapiens, UniProt P01116, G12D)", "inhibition at 20 µM", "51 to 75%"],
  ["CC(C)CNC(=O)c1nc(-c2ccccn2)nc(O)c1O [drawing 811]", "KRas G12D mutant (Homo sapiens, UniProt P01116, G12D)", "inhibition at 20 µM", "1 to 25%"]
]}

# query: inhibition at 20 µM of entry Cn1ccc(-c2sc3nc(-c4nccn4C)nc(N4CCC5(CCOC5)C4)c3c2-c2ccccc2)n1 (centres unmarked) [drawing 857] 1 to 25%

# query: inhibition at 20 µM of entry CC(C)CN(C)C(=O)c1nc(-c2ccccn2)nc(O)c1O [drawing 798] 26 to 50%

# query: inhibition at 20 µM of entry Cc1cn(C)c(-c2nc(O)c3scc(-c4ccccn4)c3n2)n1 [drawing 807] 26 to 50%

# query: inhibition at 20 µM of entry Cn1ccnc1-c1nc(O)c2scc(-c3ccccn3)c2n1 [drawing 853] 51 to 75%
